// data source = the supplement of paper PMC9170038

system: MS2 coat protein; assay: apparent KD of MS2 coat protein; designed switch direction (-1 OFF switch, 1 ON switch): -1; higher = weaker reporter binding; settings: Eterna round: R95; input ligand: FMN 200 uM

>  <seq.text>
AAGUACCGUCACGAAAGUGAUGGUACAACAAGCAUGUAAACAUGAGGAUCACCCAUGUCCUCAUAUGCUCGUCUUAU [Sensor 3 - 63] (puzzle: Sensor v3, turn-off variant 2)

>  <apparent KD of MS2 coat protein>
0.48 µM

$$$$
>  <seq.text>
AAUACACAUGAGGAUCACCCAUGUCAGGAUAUGCGCAGACAGACAGACAGACAGACGAGCAGAAGGGAUAGGAA [Excls1-IV] (puzzle: Exclusion 1)

>  <apparent KD of MS2 coat protein>
0.054 µM

$$$$
>  <seq.text>
AAUCGACAUGAGGAUCACCCAUGUUAGGAUAUGCGGAAUCGGUCAAUCAAUCGAUCAAGCAGAAGGGACGGGUU [Candy Rainbow] (puzzle: Exclusion 1)

>  <apparent KD of MS2 coat protein>
0.0291 µM

$$$$
>  <seq.text>
AGGUGGAAGCAGGAUAUGCUAGAAGUGUAGAAUGCAGAAGGGCUAACAUGAGGAUCACCCAUGUAAGAGGUGUA [JR_E6_Sub051] (puzzle: Exclusion 6)

>  <apparent KD of MS2 coat protein>
0.383 µM

$$$$
>  <seq.text>
CAGACACAUGAGGAUCACCCAUGUGAGGAUAUGCGUACGUUGUCCGUAGGCGACGUGCGCAGAAGGCGCAAAGG [JL-ex1-3.10 Eli mod] (puzzle: Exclusion 1)

>  <apparent KD of MS2 coat protein>
0.0657 µM

$$$$

* * *

system: MS2 coat protein; test: apparent KD of MS2 coat protein; designed switch direction (-1 OFF switch, 1 ON switch): -1; higher = weaker reporter binding; details: input ligand: microRNA oligo, concentration not stated
Some sequences, each annotated with its measured apparent KD of MS2 coat protein.

>  <seq.text>
CAAACGGCUUUAGGAUAUGACUUUUCGUACAUGAGGAUCACCCAUGUCAGGACUGGUGGUGCGAGUCAGAAGGAGAGUCAAGAA [Eternabot solution 30] (Eterna round: R96, puzzle: Exclusion NG 2)

>  <apparent KD of MS2 coat protein (nM)>
99.2

$$$$
>  <seq.text>
CAAGUGCCGGAAGGAUAUCAGCGAUGUCACGCUUGAGAAGGUCUGUGCACAUGAGGAUCACCCAUGUCCGCCAGACUCCUUAAC [Eternabot solution 21] (Eterna round: R96, puzzle: Exclusion NG 1)

>  <apparent KD of MS2 coat protein (nM)>
7.68

$$$$
>  <seq.text>
UGUUGUCGCGCAGGAUAUGAGGAUCACCCAUAUAAGGAUAUCGAAAGAGAAGGUCUGAGGAUUACCCAGAAGGGCGGGACAACU [pwkr exNG2 2xF5 2xFMN.30] (Eterna round: R96, puzzle: Exclusion NG 2)

>  <apparent KD of MS2 coat protein (nM)>
43.8

$$$$
>  <seq.text>
CCCAGUUAUUGAGGAUAUCCUACAUGAGGAUCACCCAUGUAAUAAAUGAGGAUUUCGGGUGUCUAGGAGAAGGCAAGGAUAGGC [Ostracism 22 - Jieux - Exclusion NG 2] (Eterna round: R96, puzzle: Exclusion NG 2)

>  <apparent KD of MS2 coat protein (nM)>
39.8

$$$$
